The reported numbers originate from the Immune Epitope Database (IEDB).

# SYSTEM UNDER TEST: HLA-B*07:02
# TEST PROTOCOL: IEDB peptide-MHC binding, purified MHC/direct/fluorescence; filed as Kd, often an IC50 or EC50 that approximates it; bounds were set here for any values at or beyond the usual limits of such assays
# TEST PARAMETERS: source organism: Influenza A virus (A/tern/Australia/1/04(H2N5))
READOUT KIND: Kd

1. LLTEVETYV; ≥ 20 µM

* * *

# SYSTEM UNDER TEST: HLA-B*18:01
# TEST PROTOCOL: IEDB peptide-MHC binding, purified MHC/direct/fluorescence; filed as Kd, often an IC50 or EC50 that approximates it; bounds were set here for any values at or beyond the usual limits of such assays
# TEST PARAMETERS: source organism: Coxiella burnetii
pKd: −log10 of the molar value.
READOUT KIND: pKd

1) AISRLRTQK; ≤ 4.70
